These measurements were taken from the supplement of paper PMC12592484.

# Tested on: CAF#5 (primary prostate cancer-associated fibroblasts of myCAF-like type)
# protocol description: drug sensitivity score (DSS2, normalised partial AUC of dose-response, 72 h CellTiter-Glo viability) (DSS (dimensionless)); higher = more sensitive (stronger growth inhibition / cytotoxicity); extreme values may be limits of the assay
measurement label: drug sensitivity score
Number, no unit, nothing else.

Any idea what drug sensitivity score was measured for FC(F)(F)c1ccc(CNc2ccc(Cc3c[nH]c4ncc(Cl)cc34)cn2)cn1 [Pexidartinib] (tested concentration range 1-10000 nM) ?
5.1

Subsequent entry: CCc1cnn2c(NCc3ccc[n+]([O-])c3)cc(N3CCCC[C@H]3CCO)nc12 [Dinaciclib] (tested concentration range 0.1-1000 nM)
18

Try this compound too: O=C(c1ccc(F)c(F)c1Nc1ccc(I)cc1F)N1CC(O)([C@@H]2CCCCN2)C1 [Cobimetinib] (tested concentration range 0.1-1000 nM)
1.9

# repeat for CC(C)Cn1cnc2c(N)nc3ccccc3c21 [Imiquimod] (tested concentration range 0.2-2500 nM)
0

Queued: CCCCNc1ncc(C(=O)NCc2ccc(-n3ccnc3)cc2)c(NC2CCC(O)CC2)n1 (stereo not drawn) [UNC2881] (tested concentration range 0.2-2500 nM)
0.1

Now consider Nc1nc2[nH]cnc2c(=S)[nH]1 [Thioguanine] (tested concentration range 1-10000 nM) .
1.8

Now the compound C[C@@H](Oc1cc(-c2cnn(C3CCNCC3)c2)cnc1N)c1c(Cl)ccc(F)c1Cl [Crizotinib] (tested concentration range 0.1-1000 nM)
1.5

Follow-up item: O=C(CCCCCCC(=O)Nc1ccccc1)NO [Vorinostat] (tested concentration range 1-10000 nM)
4.1

Would you kindly repeat that for C[C@@H]1CN(Cc2ccc(F)cc2)[C@@H](C)CN1C(=O)c1cc2c(C(=O)C(=O)N(C)C)cn(C)c2cc1Cl [Talmapimod] (tested concentration range 1-10000 nM) ?
0

Consider next the compound CC(C)C[C@H](NC(=O)CNC(=O)c1cc(Cl)ccc1Cl)B(O)O [Ixazomib] (tested concentration range 0.1-1000 nM) in the same way.
7.3

Same question, C=CC(=O)N1CCC[C@@H](n2nc(-c3ccc(Oc4ccccc4)cc3)c3c(N)ncnc32)C1 [Ibrutinib] (tested concentration range 0.1-1000 nM) this time
0.7

Now try O=S(=O)(c1cccc2c(O)nccc12)N1CCCNCC1 [Hydroxyfasudil] (tested concentration range 1.9-19000 nM) .
0

Can you handle C[C@]1(c2nc3c(C(N)=O)cccc3[nH]2)CCCN1 [Veliparib] (tested concentration range 1-10000 nM) next?
0

One more compound: C[C@@H]1CN(C(=O)c2ccc(NC(=O)c3cc(O[C@H](C)c4c(Cl)ccc(F)c4Cl)c(N)nn3)cc2)C[C@H](C)N1 [Ensartinib] (tested concentration range 0.1-1000 nM)
4.1

Subsequent entry: COc1cccc2c1C(=O)c1c(O)c3c(c(O)c1C2=O)C[C@@](O)(C(C)=O)C[C@@H]3O[C@H]1C[C@H](N)[C@H](O)[C@H](C)O1 [Daunorubicin] (tested concentration range 0.1-1000 nM)
6.6

Record: Cc1cccc(-c2[nH]c(CNc3ccccc3F)nc2-c2ccc3ncnn3c2)n1 [TEW-7197] (tested concentration range 0.2-2500 nM)
0.3

Subsequent entry: CC(C)C[C@H](NC(=O)[C@H](CCc1ccccc1)NC(=O)CN1CCOCC1)C(=O)N[C@@H](Cc1ccccc1)C(=O)N[C@@H](CC(C)C)C(=O)[C@@]1(C)CO1 [Carfilzomib] (tested concentration range 0.1-1000 nM)
22

Try this compound next: CC(C)n1nc(-c2ccc3oc(N)nc3c2)c2c(N)ncnc21 [Sapanisertib] (tested concentration range 0.1-1000 nM)
19.1

Repeat with O=C1CCC(N2C(=O)c3ccccc3C2=O)C(=O)N1 (stereo not drawn) [Thalidomide] (tested concentration range 1-10000 nM)
0

// next record C[C@H]1O[C@@H](O[C@H]2[C@@H](O)C[C@H](O[C@H]3[C@@H](O)C[C@H](O[C@H]4CC[C@@]5(C)[C@H](CC[C@@H]6[C@@H]5C[C@@H](O)[C@]5(C)[C@@H](C7=CC(=O)OC7)CC[C@]65O)C4)O[C@@H]3C)O[C@@H]2C)C[C@H](O)[C@@H]1O [Digoxin] (tested concentration range 0.1-1000 nM)
13.4

Follow-up entry: Nc1ncnc2c1nc(Cl)n2[C@@H]1O[C@H](CO)[C@@H](O)[C@H]1O [8-chloro-adenosine] (tested concentration range 5-50000 nM)
6.5

Repeat for the following compound: COc1ccccc1S(=O)(=O)Nc1ccc2c(c1)CN(C)C(=O)N2 [PFI-1] (tested concentration range 3-30000 nM)
1

How about this compound: CC1(C)CNc2cc(NC(=O)c3cccnc3NCc3ccncc3)ccc21 [Motesanib] (tested concentration range 1-10000 nM)
2.4
